B1: GLT8D2 (parent)
chain: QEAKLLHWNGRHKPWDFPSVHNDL

Variants of: B1
Protocol Description: protein stability index of a GFP-peptide fusion (GPS, HEK-293T) (PSI 1-6); higher = more stable;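 also: lentivirally expressed fusions sorted by FACS into six bins by GFP to DsRed ratio, PSI derived from sequencing read proportions per bin multiplied by bin number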
Details: c terminus: a fixed tail appended
Decision: protein stability index compared against 2; not below it gives Satisfied, below it gives Not satisfied.

>  <Variant>
L6Q

>  <Group Label>
Satisfied

$$$$

Decide: is the reported value of protein stability index for H21W equal to or greater than 2? Satisfied

Decide: is the reported value of protein stability index for Q1C equal to or greater than 2? Not satisfied

Decide: is the reported value of protein stability index for L6H equal to or greater than 2? Satisfied

Decide: is the reported value of protein stability index for P14Y equal to or greater than 2? Satisfied
